Values from patent US20190359687A1

Molecular target: T1, human glycophorin A on human red blood cells or red blood cell membranes (human, UniProt P02724 20-150)
T1 construct: whole, on cells; also called hRBC; human RBC membranes
T1 sequence (looked up): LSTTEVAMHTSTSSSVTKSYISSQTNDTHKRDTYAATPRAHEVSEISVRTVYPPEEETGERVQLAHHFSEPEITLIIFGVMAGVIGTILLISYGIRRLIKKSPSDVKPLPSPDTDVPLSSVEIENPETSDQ
Assay: SPR (Biacore), Fab on human RBC membranes;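 note: human RBC membranes captured on an L1 sensor chip, Fab fragments passed over as analyte, binding kinetics read by surface plasmon resonance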
Provide the recorded kon for the entries that follow.
One number for each entry, in M⁻¹ s⁻¹.

Would you mind giving kon for every binder in the list below?
1. TPP-7787, affinity matured 6C12 Fab (Fab, V domains shown, Tested as Fab) VH: EVQLVQSGAEVKKPGASVKVSCKASGYTFTTYAIHWVRQAPGQGLEWMGYINPSSGYTRYNPKFKGRVTMTRDKSTSTAYMELRSLRSDDTAVYYCWTGTRDYWGQGTTVTVSS VL: DIQLTQSPSFLSASVGDRVTITCRASSSVSYIYWFQQKPGKAPKLLIYATSTRQSGVPSRFSGSGSGTEYTLTISSLQPEDFATYYCHQRNSFPYTFGQGTKLEIK
2. TPP-5906, humanized and germlined 6C12 Fab; VL: (S24R, A26S, S49A, P54Q, F95Y); VH: (I48M, D56G, D66G, L70M, T72R) (Fab, V domains shown, The text says that a 6xHIS tag is present on the Fabs in the peptide ELISA; it is not in the printed chains) VH: EVQLVQSGAEVKKPGASVKVSCKASGYTFTTYTIHWVRQAPGQGLEWMGYINPSSGYTRYNPKFKGRVTMTRDKSTSTAYMELRSLRSDDTAVYYCQTGTRDYWGQGTTVTVSS VL: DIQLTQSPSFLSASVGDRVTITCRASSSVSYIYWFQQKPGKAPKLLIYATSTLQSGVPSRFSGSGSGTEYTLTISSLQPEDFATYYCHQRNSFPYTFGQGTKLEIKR

1. 6.25e+06
2. 7.14e+06

Would you mind giving kon for every binder in the list below?
1. TPP-7790, affinity matured 6C12 Fab (Fab, V domains shown, Tested as Fab with a 6xHIS tag) VH: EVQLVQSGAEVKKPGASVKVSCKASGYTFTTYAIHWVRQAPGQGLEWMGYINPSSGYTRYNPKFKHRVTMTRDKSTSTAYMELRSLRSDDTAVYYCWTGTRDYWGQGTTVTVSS VL: DIQLTQSPSFLSASVGDRVTITCRASSSVRYIYWFQQKPGKAPKLLIYATSFLQSGVPSRFSGSGSGTEYTLTISSLQPEDFATYYCHQRNSFPYTFGQGTKLEIK
2. TPP-7788, affinity matured 6C12 Fab (Fab, V domains shown, Tested as Fab) VH: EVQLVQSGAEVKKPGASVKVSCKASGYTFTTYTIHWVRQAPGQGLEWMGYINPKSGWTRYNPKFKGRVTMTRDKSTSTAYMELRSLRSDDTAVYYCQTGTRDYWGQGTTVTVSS VL: DIQLTQSPSFLSASVGDRVTITCRASSSVSYIYWFQQKPGKAPKLLIYATSFRQSGVPSRFSGSGSGTEYTLTISSLQPEDFATYYCHQRNSFPYTFGQGTKLEIK
3. TPP-7783, affinity matured 6C12 Fab (Fab, V domains shown, Tested as Fab) VH: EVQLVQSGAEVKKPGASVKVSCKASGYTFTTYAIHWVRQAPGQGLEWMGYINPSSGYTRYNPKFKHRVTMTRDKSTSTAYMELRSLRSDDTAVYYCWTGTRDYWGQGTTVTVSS VL: DIQLTQSPSFLSASVGDRVTITCRASSSVRYIYWFQQKPGKAPKLLIYATSFRRSGVPSRFSGSGSGTEYTLTISSLQPEDFATYYCHQRNSFPYTFGQGTKLEIK
4. TPP-7777, affinity matured 6C12 Fab (Fab, V domains shown, Tested as Fab) VH: EVQLVQSGAEVKKPGASVKVSCKASGYTFTTYTIHWVRQAPGQGLEWMGYINPSSGWTRYNPKFKGRVTMTRDKSTSTAYMELRSLRSDDTAVYYCWTGRRDYWGQGTTVTVSS VL: DIQLTQSPSFLSASVGDRVTITCRASSSVSYIYWFQQKPGKAPKLLIYATSTRQSGVPSRFSGSGSGTEYTLTISSLQPEDFATYYCHQRNSFPYTFGQGTKLEIK

1: 8.58e+06; 2: 3.03e+06; 3: 267000; 4: 7.44e+06
